Origin of the recorded values: the supplement of paper PMC6555819

tested on: VDR homodimer (NR concentration 270 nM); assay: PBM binding z-score (relative to random genomic background probes); higher = stronger binding; sequences stand for … in GC…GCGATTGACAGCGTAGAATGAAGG
# class assignment by measured PBM binding z-score: one = under -0.1, two = from -0.1 up to 2, three = 2 and over

Consider the following illustrative entries.
TTCCCAAGGTGAAAGGTCGTTGATGCACGCCTTG | two
GCTAGCAGCCCATTTGGGTCACTCAATGACGGGC | one

// bin(item) where item = ATATGTAGGTTAAGGGTCGTTCAGGTTGGTTCGC
three

Bin this entry: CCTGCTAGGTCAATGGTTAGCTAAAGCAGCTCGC
one

Bin? TATACAGGGTCAAAGGCCAGAGTTCGAATGTCGA
three

Please report the category associated with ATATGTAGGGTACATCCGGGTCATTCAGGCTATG , nothing else.
three

For the record AGAATGAGGTTATACGAAGATCAGGGAAGAAAGT , report the class its PBM binding z-score corresponds to.
two

Form field 'band' for TTACCAAGGTGAAGGACGTTGATCCCTCTGTAGA
one

Exam item: assign GTACCAAGGTGAATAGGTCTTTGATGAGTAGGCG to the correct category.
two

Determine which band this sequence sits in: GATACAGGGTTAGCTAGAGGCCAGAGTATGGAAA
two

Exercise: read the entry CCTACTGGGCCAAAATGGTCATTGATGCCGATAA and state which class it falls under.
one

Please classify: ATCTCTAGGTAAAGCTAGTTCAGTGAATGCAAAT
two

###

system: RXRa homodimer (NR concentration 180 nM); test: PBM binding z-score (relative to random genomic background probes); higher = stronger binding; sequences stand for … in GC…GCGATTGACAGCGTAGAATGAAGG
Kindly return y if reported PBM binding z-score is no lower than 0.7; return n if it is lower.

CCTACTGGGCCAGGGTCATTGATCAGTCAAAGCA | y

Hi, just wondering whether GATACAGGGTCAAGGCCATAGTACGCGTATTGAT shows PBM binding z-score of 0.7 or higher.
y

###

tested on: LXRa homodimer (NR concentration 270 nM); assay: PBM binding z-score (relative to random genomic background probes); higher = stronger binding; sequences stand for … in GC…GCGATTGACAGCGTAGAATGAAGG
measured.quantity: PBM binding z-score
Respond numerically, and do not add a unit to the figure.

What value of PBM binding z-score has been reported for the following sequence? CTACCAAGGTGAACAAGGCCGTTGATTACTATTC
-0.224

Please look up its PBM binding z-score: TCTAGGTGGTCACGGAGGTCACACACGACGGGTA
2.06

Quick one: PBM binding z-score for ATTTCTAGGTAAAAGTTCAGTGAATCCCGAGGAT ?
1.53

Would you kindly share the measured PBM binding z-score for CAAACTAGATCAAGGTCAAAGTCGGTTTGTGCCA ?
3.64

// returns reported PBM binding z-score for input TCTAGTAGATCAAGCAGGTTAAGAAAGCCTGAGT
-0.279

Form field: reported PBM binding z-score of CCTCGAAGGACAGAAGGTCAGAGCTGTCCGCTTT
0.132

// returns reported PBM binding z-score for input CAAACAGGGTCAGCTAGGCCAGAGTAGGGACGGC
-0.316

Suppose we examine the sequence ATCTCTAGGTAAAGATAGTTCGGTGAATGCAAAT ; what PBM binding z-score value has been reported?
0.268

What PBM binding z-score value was documented for this sequence, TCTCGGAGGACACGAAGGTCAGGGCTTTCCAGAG ?
0.139

Form field: reported PBM binding z-score of ATCTCGAGGTAAAAGTTCAGTGAATCCCGAGGAT
0.551

What PBM binding z-score value was documented for this sequence, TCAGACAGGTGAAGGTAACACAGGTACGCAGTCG ?
0.113

Query: PBM binding z-score; subject: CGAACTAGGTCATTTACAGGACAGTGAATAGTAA
1.29

###

tested on: VDR homodimer (NR concentration 270 nM); experiment: PBM binding z-score (relative to random genomic background probes); higher = stronger binding; sequences stand for … in GC…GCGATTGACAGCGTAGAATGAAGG
measured.quantity: PBM binding z-score

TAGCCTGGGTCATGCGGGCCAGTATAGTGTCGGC | 0.606
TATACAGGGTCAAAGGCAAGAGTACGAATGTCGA | 3.39
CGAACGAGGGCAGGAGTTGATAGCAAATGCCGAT | 0.281
CGTCAAAGTTCAACTATGGTAACGTAAAGCACGC | 4.04

# query: PBM binding z-score of entry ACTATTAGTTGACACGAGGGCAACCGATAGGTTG
1.07

Return reported PBM binding z-score; argument: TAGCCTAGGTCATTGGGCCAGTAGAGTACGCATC
1.3

// lookup PBM binding z-score for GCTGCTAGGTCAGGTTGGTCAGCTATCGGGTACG
0.204

I would be grateful if you could share the reported PBM binding z-score for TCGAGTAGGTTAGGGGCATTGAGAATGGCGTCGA .
0.492

Would you kindly share the measured PBM binding z-score for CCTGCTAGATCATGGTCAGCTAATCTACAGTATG ?
-0.86

Can you look up the measured PBM binding z-score of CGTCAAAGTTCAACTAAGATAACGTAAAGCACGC for me?
3.75

Fill in: PBM binding z-score of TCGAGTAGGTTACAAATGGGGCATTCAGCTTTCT is ___
-0.133

Dear colleague, I am looking for the recorded PBM binding z-score of the following sequence: CGTCCAAGGTCATCGGAGGTCAGTGAAGACAGAT
5.07

###

test system: RXRa homodimer (NR concentration 180 nM); experiment: PBM binding z-score (relative to random genomic background probes); higher = stronger binding; sequences stand for … in GC…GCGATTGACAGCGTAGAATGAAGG
Decide by PBM binding z-score: equal to or exceeding 2 means 1.0, less means 0.0.

Solved entries (count: 10):
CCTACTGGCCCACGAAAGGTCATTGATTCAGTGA | 1.0
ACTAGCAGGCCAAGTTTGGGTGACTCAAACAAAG | 0.0
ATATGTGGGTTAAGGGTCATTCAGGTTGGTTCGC | 1.0
TCATATAGGTAAATGCTATGTGAAAGTCCGATCT | 0.0
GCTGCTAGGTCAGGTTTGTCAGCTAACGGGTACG | 0.0
CGAACTAGGTCAAGGAAAGTGAATCTCCGCACGC | 1.0
CAAACTAGGTCAAGAGCTCAAAGTCCGCTTCCCG | 1.0
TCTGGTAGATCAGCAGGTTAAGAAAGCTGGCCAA | 0.0
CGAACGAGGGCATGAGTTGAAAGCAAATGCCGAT | 0.0
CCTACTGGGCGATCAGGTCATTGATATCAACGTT | 0.0

hey, is PBM binding z-score for this one >= 2? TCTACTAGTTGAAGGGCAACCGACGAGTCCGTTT
0.0

Record ACTAGCAGTCCAAGGGTCACTCAAGATTAGTCCG ; criterion: PBM binding z-score no lower than 2. Met?
1.0

###

system: RARa homodimer (NR concentration 270 nM); test: PBM binding z-score (relative to random genomic background probes); higher = stronger binding; sequences stand for … in GC…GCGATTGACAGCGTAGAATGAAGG
Listing: PBM binding z-score of selected sequences
I'd appreciate a reply containing only the number, no unit.

Solved cases below.
ATCGGAAGGTCGTGAGGTGAGTATACAGAAAGGC | 1.05
TCATATAGGTAATCCAGGTGAAAGTCGGCATCTA | 0.866
CATACAGGGTTAGCTAGGCCAGAGTAGGGACGGC | -0.529
AGAATGAGGTTATACGTGGATCAGGGAAGAAAGT | 0.612
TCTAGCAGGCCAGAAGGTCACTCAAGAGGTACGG | -0.201

Look at this sequence and give its reported PBM binding z-score. GGAACGAGGGCTAGTTGATAGCAGAGTTTGATGG
-0.525

###

tested on: RARa:RXR (NR concentration 270 nM, RXRa partner concentration 90 nM); experiment: PBM binding z-score (relative to random genomic background probes); higher = stronger binding; sequences stand for … in GC…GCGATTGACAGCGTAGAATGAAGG
measured.quantity: PBM binding z-score
Form field (numeric): enter value without unit.

Please review the entries below; each comes with its answer.
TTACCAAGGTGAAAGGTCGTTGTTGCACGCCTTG | 5.2
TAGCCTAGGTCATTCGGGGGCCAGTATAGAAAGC | 3.92

Fill in the blank: the reported PBM binding z-score of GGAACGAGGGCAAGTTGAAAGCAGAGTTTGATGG is ____.
0.519

Consider the sequence ATCTCTAGGTAACCAAGTTCAGTGTATGCCGAAC and give its measured PBM binding z-score.
0.828
